# Test system: SF-295 CNS
# ASSAY TEXT: NCI-60 one-dose screen, 48 h (100 = growth as untreated, 0 = no growth, -100 = all killed)
# MEASUREMENT PARAMETERS: 10 µM unless noted
This is part of a sample that, as a whole, favours compounds with a hit. Of some 83,000 tested, about 20% had one in any assay.
So I've got a bunch of compounds here, and I need their growth values.
Answers are plain numbers, in %.

Answered examples (3):
{"COMPOUND": "COc1ccc(C(=O)/C=C/c2ccc3ccccc3c2)cc1S(N)(=O)=O", "TARGET": "SF-295 CNS", "growth (%)": -80.5}
{"COMPOUND": "CC1(C)CC[C@]2(C(=O)O)CC[C@]3(C)C(=CCC4[C@@]5(C)C[C@@H](O)[C@@H]6OC(c7ccccc7Br)OC[C@@]6(C)C5CC[C@]43C)C2C1 (some centres undefined)", "TARGET": "SF-295 CNS", "growth (%)": 10.6}
{"COMPOUND": "CC(C)c1ccc2c(N)c(C(=O)Nc3ccc(C(F)(F)F)cn3)sc2n1", "TARGET": "SF-295 CNS", "growth (%)": 34.3}

For each of the items listed, what is its growth?
1. N=C1N=C(SCc2nc3ccccc3[nH]2)NC(=O)/C1=C/c1ccc(Cl)cc1
2. CC(=O)OCC1OC(OC2C(COC(C)=O)OC(n3cc(COc4ccc5ccc(=O)oc5c4)nn3)C(OC(C)=O)C2OC(C)=O)C(OC(C)=O)C(OC(C)=O)C1OC(C)=O (centres undefined)
3. CN(C)CCCNC(=O)c1cc(NC(=O)c2cc(NC(=O)c3ccc(/C=C/c4ccccc4)cc3)cn2C)cn1C
4. CC1(C)CC[C@]2(C(=O)O)CC[C@]3(C)C(=CCC4[C@@]5(C)C[C@@H](O)[C@@H]6OC(c7ccco7)OC[C@@]6(C)C5CC[C@]43C)C2C1 (some centres undefined)
5. CCCCNC(=S)Nc1ccc(OCc2nc3ccccc3[nH]2)cc1
6. COc1ccc2[nH]c(=O)c(CSc3nccc(-c4ccc(OC)c(OC)c4)n3)cc2c1
7. COc1ccccc1/C=C/C(=O)c1ccc(OC)c(S(N)(=O)=O)c1
8. NC(=S)Nc1cccc(NC(N)=S)c1

Response:
1. 103
2. 113
3. 35.2
4. 24.5
5. 53.7
6. -30.4
7. 21.8
8. 90.2

---

# System: M14 melanoma
# ASSAY TEXT: NCI-60 one-dose screen, 48 h
# MEASUREMENT PARAMETERS: 10 µM unless noted
Compounds without any hit were thinned out: in the full panel of roughly 83,000, 20% have a hit. Activity calls are given as the source filed them. How the source made its calls: active means growth percent below 10; inactive means the rest.
# valid calls are active, inactive; nothing else

{"MOLECULE": "Nc1nc(C(F)(F)F)cs1", "TARGET": "M14 melanoma", "GROUP LABEL": "inactive"}
{"MOLECULE": "O=c1oc2ccccc2cc1-c1csc(N2N=C(c3ccccc3)CC2c2ccc(N3CCOCC3)cc2)n1 (centres undefined)", "TARGET": "M14 melanoma", "GROUP LABEL": "inactive"}
{"MOLECULE": "C#CCOc1cc(N(CC)CC)ccc1C(C(=O)NC(C)(C)C)N(C(=O)C1CCc2cc(F)ccc2O1)c1ccccc1Br (centres undefined)", "TARGET": "M14 melanoma", "GROUP LABEL": "inactive"}
{"MOLECULE": "COc1ccc(/C=C/c2nc3ccccc3c(=O)n2CC(=O)Nc2ccc(OC)cc2)cc1", "TARGET": "M14 melanoma", "GROUP LABEL": "inactive"}
{"MOLECULE": "Cc1ccc2c(N)c(C(=O)Nc3ccc(OC(F)(F)F)cc3)sc2n1", "TARGET": "M14 melanoma", "GROUP LABEL": "inactive"}
{"MOLECULE": "N#Cc1c(-c2cccc(Cl)c2Cl)cc(-c2ccc3ccccc3c2)[nH]c1=O", "TARGET": "M14 melanoma", "GROUP LABEL": "inactive"}
{"MOLECULE": "COc1ccc(-c2nc3cc(C)ccc3n2CC(=O)N=Nc2c(O)[nH]c3ccc(Br)cc23)cc1", "TARGET": "M14 melanoma", "GROUP LABEL": "active"}
{"MOLECULE": "COc1ccc(C(=O)Nc2n[nH]c(Nc3ccccc3)c2C#N)cc1", "TARGET": "M14 melanoma", "GROUP LABEL": "inactive"}

Could you now consider this next molecule?
Request: Answer briefly: the call reported for Cc1ccccc1[C@H]1C(C(=O)c2ccc(Cl)cc2)C2(N[C@@H]1c1ccccc1)C(=O)Nc1ccccc12 (some centres undefined) in this assay.
Response: active

---

# Tested on: MDA-MB-231 breast
# ASSAY TEXT: NCI-60 one-dose screen, 48 h
# MEASUREMENT PARAMETERS: 10 µM unless noted
Compounds without any hit were thinned out: in the full panel of roughly 83,000, 20% have a hit. Active and inactive are the calls of the source. How the source made its calls: active means growth percent below 10; inactive means the rest.
# valid calls are active, inactive; nothing else

// below: answered compounds
{"COMPOUND": "NS(=O)(=O)c1ccc(-n2cc(-c3cccc(NC(=O)c4cc(Cl)cc(Cl)c4)c3)nn2)cc1", "TARGET": "MDA-MB-231 breast", "GROUP LABEL": "inactive"}
{"COMPOUND": "Brc1ccc(N/N=C/c2c[nH]c3ccc(Br)cc23)nc1", "TARGET": "MDA-MB-231 breast", "GROUP LABEL": "active"}
{"COMPOUND": "COc1c(F)ccc(C(=O)Nc2ccc3nc(NC(=O)C4CCCN(S(=O)(=O)c5ccc(C#N)cc5)C4)sc3c2)c1F (centres undefined)", "TARGET": "MDA-MB-231 breast", "GROUP LABEL": "inactive"}
{"COMPOUND": "COc1ccc(C(=O)/C=C/c2ccc(OCc3ccccc3)c(OC)c2)cc1OC", "TARGET": "MDA-MB-231 breast", "GROUP LABEL": "inactive"}
{"COMPOUND": "O=C(/C=C/Nc1ccc(Cl)cc1)c1ccc2c(c1)Nc1ccccc1S2", "TARGET": "MDA-MB-231 breast", "GROUP LABEL": "inactive"}
{"COMPOUND": "COc1ccc(-c2nc(SC(C)C)nc(NCCc3c[nH]c4ccccc34)c2C#N)cc1", "TARGET": "MDA-MB-231 breast", "GROUP LABEL": "inactive"}
{"COMPOUND": "Cc1ccc(S(=O)(=O)c2nc(S(=O)(=O)c3ccc(C)cc3)c(Cl)s2)cc1", "TARGET": "MDA-MB-231 breast", "GROUP LABEL": "active"}
{"COMPOUND": "O=c1oc2ccccc2cc1-c1csc(N2N=C(c3ccccc3)CC2c2ccc(N3CCOCC3)cc2)n1 (centres undefined)", "TARGET": "MDA-MB-231 breast", "GROUP LABEL": "inactive"}

Could you now consider this next compound?
Request: Answer briefly: the call reported for COc1ccc(C(=O)/C=C/c2ccc(Cl)c(Cl)c2)cc1S(N)(=O)=O in this assay.
Response: inactive

---

# Test system: HCT-116 colon
# ASSAY TEXT: NCI-60 one-dose screen, 48 h (100 = growth as untreated, 0 = no growth, -100 = all killed)
# MEASUREMENT PARAMETERS: 10 µM unless noted
This is part of a sample that, as a whole, favours compounds with a hit. Of some 83,000 tested, about 20% had one in any assay. Calls of active or inactive are those of the source. How the source made its calls: active means growth percent below 10; inactive means the rest.
OUTCOME MEASURE: growth

Answered examples (5):
{"COMPOUND": "Cn1cc(-c2cc3nc(-c4cn(C)c5ncc(Br)cc45)cc(N)n3n2)c2cc(Cl)ccc21", "TARGET": "HCT-116 colon", "ENDPOINT RESULT": "-89.3% (active)"}
{"COMPOUND": "Cc1ccc([C@H]2C(C(=O)c3ccc(Cl)cc3)C3(N[C@@H]2c2ccccc2)C(=O)Nc2ccc(Cl)cc23)cc1 (some centres undefined)", "TARGET": "HCT-116 colon", "ENDPOINT RESULT": "23.7% (inactive)"}
{"COMPOUND": "COc1ccc(C(=O)/C=C/c2cccc(Cl)c2)cc1S(N)(=O)=O", "TARGET": "HCT-116 colon", "ENDPOINT RESULT": "-64.2% (active)"}
{"COMPOUND": "C#CCOc1cc(N(CC)CC)ccc1C(C(=O)NC(C)(C)C)N(C(=O)C1CCc2cc(F)ccc2O1)c1cc(C)cc(C)c1 (centres undefined)", "TARGET": "HCT-116 colon", "ENDPOINT RESULT": "11.4% (inactive)"}
{"COMPOUND": "CN(C)CCOc1ccc(C(=O)C2[C@H](c3ccc(Cl)cc3)[C@@H](c3ccccc3)NC23C(=O)Nc2ccccc23)cc1 (some centres undefined)", "TARGET": "HCT-116 colon", "ENDPOINT RESULT": "22% (inactive)"}

For each of the items listed, what is its growth?
1. N/C(=N\c1nc2ccccc2s1)NC(=O)Nc1c(Cl)cccc1Cl
2. Cc1cccc(-c2nc(Nc3cccc(S(N)(=O)=O)c3)c3ccccc3n2)c1
3. NS(=O)(=O)c1ccc(-n2cc(-c3cccc(NC(=O)c4cc(Cl)cc(Cl)c4)c3)nn2)cc1
4. Cc1ccc(NCC(=O)Cn2cc(COc3ccc(C=Nc4cnc5ccccc5c4)cc3)nn2)cc1
5. C=CC[N+](C)(C)CCn1c2ccccc2c2nc3cc(C)c(C)cc3nc21

Response:
1: 22.7% (inactive); 2: -5.73% (active); 3: 45.4% (inactive); 4: 110% (inactive); 5: 98.4% (inactive)
